- system: Nuclear receptor ROR-gamma (Homo sapiens)
- measurement-protocol: qHTS assay to identify small molecule antagonists of the retinoid-related orphan receptor gamma (ROR-gamma) signaling pathway (AID 1159521; further: nearly all actives have a fitted effect of over 50% in size)
- run-conditions: Tet-on RORgamma CHO cells, RORE-luciferase, 16 h; series mostly up to 92.4 µM
Inconclusive results are not listed. Active and inactive are the calls of the source. The call rests on the fitted dose curve; in most records, active means well fitted inhibition curve with a large enough effect in the repeat runs; inconclusive means weak or mixed curves, or effect the other way; inactive means no such curve, though single readings can be large or run the other way.
Outcomes: class 1 (active), class 0 (inactive)

compound	system	cat
CCC(COC(=O)CCS)(COC(=O)CCS)COC(=O)CCS	Nuclear receptor ROR-gamma (Homo sapiens)	class 0
c1ccc(C(O[C@@H]2CCCN(CCc3ccc4c(c3)OCO4)C2)c2ccccc2)cc1	Nuclear receptor ROR-gamma (Homo sapiens)	class 1
CCc1cccc(CC)c1NC(=O)CN(CC(=O)O)CC(=O)O	Nuclear receptor ROR-gamma (Homo sapiens)	class 0
O=C1OC2(c3ccc(O)cc3Oc3cc(O)ccc32)c2ccc(N=C=S)cc21	Nuclear receptor ROR-gamma (Homo sapiens)	class 0
CCC(=O)OC(=O)CC	Nuclear receptor ROR-gamma (Homo sapiens)	class 0
Cc1ccc(C)cc1	Nuclear receptor ROR-gamma (Homo sapiens)	class 0
O=C(O)[C@H](O)[C@@H](O)[C@H](O[C@@H]1O[C@H](CO)[C@H](O)[C@H](O)[C@H]1O)[C@H](O)CO	Nuclear receptor ROR-gamma (Homo sapiens)	class 0
CC(C)=CCC1=C(O)c2ccccc2C(=O)C1=O	Nuclear receptor ROR-gamma (Homo sapiens)	class 1
Cc1cccc(C(=O)O)c1O	Nuclear receptor ROR-gamma (Homo sapiens)	class 0
CN(C)Cc1ccccc1O	Nuclear receptor ROR-gamma (Homo sapiens)	class 0
O=C1CCCCCCCCCCCCCCCO1	Nuclear receptor ROR-gamma (Homo sapiens)	class 0
CCCCNS(=O)(=O)c1ccc(C)cc1	Nuclear receptor ROR-gamma (Homo sapiens)	class 0
OC1CCC(C2CCCCC2)CC1 (stereo not drawn)	Nuclear receptor ROR-gamma (Homo sapiens)	class 0
CC(N=C(NC#N)Nc1ccncc1)C(C)(C)C (stereo not drawn)	Nuclear receptor ROR-gamma (Homo sapiens)	class 0
COc1cccc(OC)c1C(=O)O	Nuclear receptor ROR-gamma (Homo sapiens)	class 0
OC/C=C/CO	Nuclear receptor ROR-gamma (Homo sapiens)	class 0
CCn1c2ccccc2c2cc([N+](=O)[O-])ccc21	Nuclear receptor ROR-gamma (Homo sapiens)	class 0
O=C(O)c1cc(=O)c2ccccc2o1	Nuclear receptor ROR-gamma (Homo sapiens)	class 0

Reference source: PubChem BioAssay (Tox21)
